These measurements were taken from the domain aggregation screens of Martell et al. (2025).

Test: soluble fraction after stress (log2 fold change); higher = more stays soluble; pooled small domains, quantitative proteomics
Conditions: stress: pH 4
soluble fraction (log2) of 0.1 or higher: class 1. Under 0.1: class 0.

* HMKVLFLESIEGSASMGEIKDVANGYARNFLFPNGFAVPATPKNLKNVEELQAKELEIQTERDNWAA | class 0
* HMQVDENNINKRIDKYLSENTEYSRSTIQKMIDNGNITVNSKPTKSSYKLELNDIITIDNNFKE | class 0
* HMDTDVFLMDLRGESRDYAEEVLINNNLEVKVIILPFSKRHYPGKVVEMRPSPFTKVKKGRIITLSVAGN | class 0
* HMSEKRLHLVVDESDVNTRIDKYIADELDGYSRSFIQKLIKDNNVLVNGRAVKPNYNIGISDNIDIVLPKL | class 1
* HMIAPQISSGKVNTKELNVRSGPATTFGIVKKLPLNAMVGIFEEKNGWFRIATGQWVSKTYVDL | class 1
* HMGDWEDFWEKEARRRKLSLDYQVVRSLSRWSREYDWGEEDVEQFLSQFPEGETVKMEDVELYFE | class 0
* HMHPTDMKLTARLEEGAQFVRTQQLSKAIEIFTEVIKLDQNWAEAWNKRATVFYMMGKFKQSQEDIDKVLA | class 0
* HMQISDEGELSGIVRKIIDANPQSVADYKAGKKKAIGFLVGQIMIETKGRANPASVNELLIKKLE | class 1
* HMSELSGSQLKAIREEKHIPLEQVASATRIRLSLLEALEMDEYAELGSRTQARGFLKLYADFLGVPFEA | class 0
* HMEAKQMDAWIVSEAKRQGGKIEPAAAYELSRHTATDTSIASQEIAKLLMYVDFKRPVTREDVVELVSA | class 0
* HMNSRTLAYSDFIRKVDKGEVSAVVIDGEQVQVQTKDGQTFVTIQPQSEQMNDKLVEQLIAKDISVKAERQ | class 0
* HMDRKFFFNEQYEDYINSDLKVKFMNDSGSKKSFQGELTKVTPSDLFLESEKESVKVPFSSIIQANLI | class 0
* HMNDNFTPDDLNRLARIKDLPQAKKYALELISNKSAKPMKPEKVRWFANQLQKKKSVMDITKMMYDLLLA | class 1
* HMANPMFAEIKKVQKQLNEMGYQAGPADGLWGNKTENAVKLLLSDNNLKWDGTFDQNEIKIIEEIFLSND | class 0
* HMHRTRNAERTRAAVLKAAAEVLAERGTGASLARIAEVAGVSKSGLLHHFANREQLIVALLED | class 0
* HMPIDNTLLSRITSLGVSTTEAEKLISKHGEEALKANLEVVEERLSKPNLPLLDSPAAYLKTALKNG | class 1
* HMVGDLPPQELRVFELIGDGLSNREIADEMILAEKTIKNYVTSLLQKLGMQRRTEAAAFAARLDER | class 0
* HMWPDDAIALPTRDGQDVGGAQERTMLAFASGAAGIRTVEEINPDGSITRLRTRYGWPTFETEGARTAAAE | class 0
* HMQLTPAQHAILAYAIEHTGGKIEWFPDNIKGGARTKVLEGLFNKALITRDSTDWFVAAEGYDALGR | class 1
* HMRDIGKNIRYYREKKGYSQEQLAQLLFVTRQTVSNYETSRSRPDVETLVKLAGLLDIDVTDLIYGPR | class 0
* HMHDLSQQIVRYLIQQGGSSSLTDKSDPQEIYRTFKVSKKKYKQALGNLYKSKTIVITSGKIELVD | class 1
* HMNDMPELLSIKEASQWATEYLNKNVTTSNIAYLIQYGRIRKIGNNGSTQVLKDDLVKYYKDQK | class 0
* HMSFKQARFMMDAANGKALAWLYSHAEVLDRKDQGENIEIHVMISPADLSRFVNAFGYQPVQS | class 0
* HMSTTHLTASVIKDKVNVRSEADSQNGAIIDKARTGERLLVTDYGNKWTGIVLPDGKRGYIMTEYLQF | class 1
* HMVSVLGRRIKELRLQNSMTQMQLAKKLGYKGNSLVAGWELGKNYPSVSSIKRLSEIFDTDLMKYVG | class 1
* HMSTADGGYPSIVINDGRVIDTNLQKLGLDRSWLSAELKRQGKGSEKDIFLMTVNQRREVYISVKEA | class 0
* HMLRISLAAARVNAEMTQEDVAREMHVSKNTVVNWEKGKSEPTISQSRELSKLYNMPLEYIFYL | class 1
* HMNPTTQIQYNLPKSEFVSIYIYDLIGNRVKSLINNYQDAGYKSVYWDAMNDLGQPVSAGMYIY | class 0
* HMQYYITKIANYDQVSPNLLVRTAEGQYMVKTNADILDTDVTKLTEEEIRKDWGYLFENGFSELV | class 0
* HMAVTNLTAKQISDTRWRVTWDSTLASPTYYVYRDGLLMMQTRQELYEFDAARGEQVQIDVLDDMAAAPAE | class 0
* HMFRPRIEPGAKGSYVLEVQKRLAKLGYEHAGFDGVYGPGTERAIMQLQRDKGLPVTGIVDMRTYEALGLF | class 1
* HMAAENAVGARVKALREAMDLSLRDLSERSGVSPTMLSQVERGSTSPTLAVAEKIAAGLDLSLSQLLRL | class 1
